# Lookup of reported LogP keyed by entry
experiment: Log P by HPLC on reversed phase, method [a], acidic range (0.1% formic acid); format: physicochemical; conditions: LC-UV, 0.1% formic acid in water and acetonitrile

>  <compound>
O=C(Nc1cnn(-c2cccc(C(F)F)c2)c1C(F)(F)F)c1cccnc1C(F)F [Example 64]

>  <LogP>
2.71^[a]

$$$$
>  <compound>
COCc1c(NC(=O)c2cccnc2C(F)F)cnn1-c1ccc(Br)cc1 [Example 251]

>  <LogP>
2.58^[a]

$$$$
>  <compound>
O=C(Nc1cnn(-c2cc(F)cc(F)c2)c1C(F)F)c1cccnc1C(F)F [Example 29]

>  <LogP>
2.62^[a]

$$$$
>  <compound>
CC(C)c1ccc(-n2ncc(NC(=O)c3ccc(Cl)nc3C(F)F)c2C(F)(F)F)cc1 [Example 159]

>  <LogP>
4.13^[a]

$$$$
>  <compound>
Cc1ccccc1-n1ncc(NC(=O)c2cccnc2C(F)F)c1C(F)(F)F [Example 73]

>  <LogP>
2.71^[a]

$$$$

Data request: Reported LogP for O=C(Nc1cnn(-c2ccccc2Cl)c1-c1ccc(Cl)cc1)c1cccnc1C(F)F [Example 80] : what is it?
Data returned: 2.90^[a]

Data request: So what's the measured LogP for this one? O=C(Nc1cnn(-c2cccc(F)c2)c1C(F)F)c1cccnc1C(F)F [Example 25]
Data returned: 2.37^[a]

Data request: Entry under review: COc1c(NC(=O)c2cccnc2C(F)F)cnn1-c1ccc(Br)cc1 [Example 152] . Reported LogP?
Data returned: 2.40^[a]

Data request: Look up LogP for this compound: Cc1cnc(C(F)F)c(C(=O)Nc2cnn(-c3ccc(Cl)c(Cl)c3)c2C(F)(F)F)c1 [Example 179]
Data returned: 3.76^[a]

Data request: Please give the measured LogP for this compound: CCOc1c(NC(=O)c2cccnc2C(F)F)cnn1-c1ccc(Cl)cc1 [Example 225]
Data returned: 2.62^[a]

Data request: Reported LogP for O=C(Nc1cnn(-c2ccc(Br)cc2)c1-c1ccc(F)cc1)c1cccnc1C(F)F [Example 195] : what is it?
Data returned: 3.20^[a]

Data request: Would you mind telling me what LogP value was observed for O=C(Nc1cnn(-c2cccc(F)c2)c1C(F)(F)F)c1cccnc1C(F)F [Example 62] ?
Data returned: 2.66^[a]

Data request: Which LogP is reported for this compound? O=C(Nc1cnn(-c2ccc(Cl)cc2)c1Cl)c1cccnc1C(F)F [Example 183]
Data returned: 2.55^[a]

Data request: For the compound Cc1c(NC(=O)c2cccnc2C(F)F)cnn1-c1ccccc1Cl [Example 47] , what LogP is on record?
Data returned: 1.94^[a]

Data request: Could you tell me which LogP is on file for O=C(Nc1cnn(-c2ccccc2)c1C(F)(F)F)c1cccnc1C(F)F [Example 9] ?
Data returned: 2.53^[a]

Data request: I'd like to know its LogP. The compound in question is Cc1c(NC(=O)c2cccnc2C(F)F)cnn1-c1ccc(OC(F)(F)F)cc1 [Example 242]
Data returned: 2.64^[a]

Data request: What value of measured LogP is listed for O=C(Nc1cnn(-c2cccc(Cl)c2Cl)c1C(F)(F)F)c1ccc(Br)nc1C(F)F [Example 144] ?
Data returned: 3.80^[a]

Data request: What value of LogP has been recorded for this entry: CCC(CC)n1ncc(NC(=O)c2cc(C)cnc2C(F)F)c1C [Example 38]
Data returned: 2.12^[a]

Attribution: patent US10039283B2
